Overview of reported EC50 across a group of compounds:
- test target: Ionotropic glutamate receptor NMDA 1/2D (Rattus norvegicus, UniProt P35439+Q62645)
- Sequence (Q62645 whole entry, other chains not shown): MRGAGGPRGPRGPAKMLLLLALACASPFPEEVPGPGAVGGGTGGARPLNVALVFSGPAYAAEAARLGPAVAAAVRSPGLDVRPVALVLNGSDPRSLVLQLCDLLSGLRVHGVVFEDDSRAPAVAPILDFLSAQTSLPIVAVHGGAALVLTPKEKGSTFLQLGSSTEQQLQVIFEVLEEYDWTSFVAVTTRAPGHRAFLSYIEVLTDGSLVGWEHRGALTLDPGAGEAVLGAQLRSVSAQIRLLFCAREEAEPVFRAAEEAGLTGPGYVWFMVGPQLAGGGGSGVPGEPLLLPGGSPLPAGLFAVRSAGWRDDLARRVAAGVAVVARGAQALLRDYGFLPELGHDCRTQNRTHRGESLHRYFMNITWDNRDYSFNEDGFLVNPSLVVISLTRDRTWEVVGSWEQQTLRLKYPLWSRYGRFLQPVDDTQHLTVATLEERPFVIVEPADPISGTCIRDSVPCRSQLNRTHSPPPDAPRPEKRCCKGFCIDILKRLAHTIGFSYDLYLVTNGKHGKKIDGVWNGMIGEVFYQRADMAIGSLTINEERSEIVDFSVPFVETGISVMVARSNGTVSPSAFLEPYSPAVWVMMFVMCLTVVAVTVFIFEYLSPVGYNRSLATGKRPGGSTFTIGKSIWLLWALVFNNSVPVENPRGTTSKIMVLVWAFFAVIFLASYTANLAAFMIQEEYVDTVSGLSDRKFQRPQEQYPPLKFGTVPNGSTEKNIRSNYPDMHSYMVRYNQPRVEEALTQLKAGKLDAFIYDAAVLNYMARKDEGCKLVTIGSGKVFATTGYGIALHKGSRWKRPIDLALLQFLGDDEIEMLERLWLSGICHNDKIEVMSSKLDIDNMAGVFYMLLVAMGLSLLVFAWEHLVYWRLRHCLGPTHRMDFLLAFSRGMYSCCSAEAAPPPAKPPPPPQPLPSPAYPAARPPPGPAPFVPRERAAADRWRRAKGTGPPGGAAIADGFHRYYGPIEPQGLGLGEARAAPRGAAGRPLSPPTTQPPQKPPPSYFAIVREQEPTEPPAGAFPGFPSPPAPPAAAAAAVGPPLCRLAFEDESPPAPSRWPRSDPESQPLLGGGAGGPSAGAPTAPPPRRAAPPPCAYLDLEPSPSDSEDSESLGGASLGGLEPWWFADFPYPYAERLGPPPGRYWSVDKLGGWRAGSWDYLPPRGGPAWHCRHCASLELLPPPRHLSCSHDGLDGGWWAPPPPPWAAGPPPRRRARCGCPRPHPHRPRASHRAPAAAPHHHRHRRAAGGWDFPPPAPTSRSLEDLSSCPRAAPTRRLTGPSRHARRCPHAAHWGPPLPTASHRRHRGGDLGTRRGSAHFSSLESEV
- test description: Positive allosteric modulation of rat GluN1/GluN2D expressed in Xenopus laevis oocytes assessed as potentiation of L-glutamate/glycine-induced current response at holding potential -60 mV by two-electrode voltage clamp method
Give the value, in units of µM, as a plain number.

Consider the following illustrative entries.
Data request: Request the reported EC50 associated with `CC(C)CCCc1ccc2cc(C(=O)O)ccc2c1`
Data returned: 28.9

Data request: What measured EC50 goes with CC(C)CCC(C)c1ccc2cc(C(=O)O)ccc2c1 (racemic) ?
Data returned: 30.6

Data request: // EC50 lookup, key: `CCCCCc1ccc2cc(C(=O)O)ccc2c1`
Data returned: 61

Data request: Returns the measured EC50 for the input compound. Input: `O=C(O)c1ccc2cc(CCCC3CCCC3)ccc2c1`
Data returned: 34.7

Others:
Data request: Given the entry `C=C(CCC(C)C)c1ccc2cc(C(=O)O)ccc2c1` , report its measured EC50.
Data returned: 72.3

====

- test target: Glutamate receptor ionotropic, NMDA 2B (Rattus norvegicus) (UniProt Q00960)
- test description: Allosteric modulation of rat GluN2B expressed in Xenopus laevis oocytes assessed as L-glutamate/glycine-induced current response at 100 uM at holding potential -60 mV by two-electrode voltage clamp method relative to L-glutamate/glycine
- Type: cell-based
readout: Activity (%)
Respond with the bare value in %.

Data request: Please look up its Activity: `O=C(O)c1ccc(CCc2ccc3cc(O)c(C(=O)O)cc3c2)cc1`
Data returned: 95.8

Data request: I'd like to know its Activity. The molecule in question is `O=C(O)c1ccc2cc(CCCCc3ccccc3)ccc2c1`
Data returned: 120

Data request: Query: Activity; subject: `O=C(O)c1ccc2cc(CCCC3CCCC3)ccc2c1`
Data returned: 175

Data request: Item under review: `O=C(O)c1ccc(/C=C/c2ccc3cc(O)c(C(=O)O)cc3c2)cc1` . Reported Activity?
Data returned: 89

Data request: # get_value(readout='Activity', item= `CC(C)CCCc1ccc2cc(C(=O)O)c(C(=O)O)cc2c1` )
Data returned: 88

Data request: Could you share which Activity value was measured for `CCCCCc1ccc2cc(C(=O)O)ccc2c1Br` ?
Data returned: 52

New cases:
Data request: Quick one: Activity for `CCCCCc1ccc2cc(CO)ccc2c1` ?
Data returned: 84

Data request: What value of measured Activity is listed for `O=C(O)c1cc2cc(/C=C/c3cccc([N+](=O)[O-])c3)ccc2cc1O` ?
Data returned: 28.8

====

Listing: Activity of selected compounds
- test target: Glutamate receptor ionotropic, NMDA 2A (Rattus norvegicus) (UniProt Q00959)
- Sequence (Q00959 23-1464 limits assumed): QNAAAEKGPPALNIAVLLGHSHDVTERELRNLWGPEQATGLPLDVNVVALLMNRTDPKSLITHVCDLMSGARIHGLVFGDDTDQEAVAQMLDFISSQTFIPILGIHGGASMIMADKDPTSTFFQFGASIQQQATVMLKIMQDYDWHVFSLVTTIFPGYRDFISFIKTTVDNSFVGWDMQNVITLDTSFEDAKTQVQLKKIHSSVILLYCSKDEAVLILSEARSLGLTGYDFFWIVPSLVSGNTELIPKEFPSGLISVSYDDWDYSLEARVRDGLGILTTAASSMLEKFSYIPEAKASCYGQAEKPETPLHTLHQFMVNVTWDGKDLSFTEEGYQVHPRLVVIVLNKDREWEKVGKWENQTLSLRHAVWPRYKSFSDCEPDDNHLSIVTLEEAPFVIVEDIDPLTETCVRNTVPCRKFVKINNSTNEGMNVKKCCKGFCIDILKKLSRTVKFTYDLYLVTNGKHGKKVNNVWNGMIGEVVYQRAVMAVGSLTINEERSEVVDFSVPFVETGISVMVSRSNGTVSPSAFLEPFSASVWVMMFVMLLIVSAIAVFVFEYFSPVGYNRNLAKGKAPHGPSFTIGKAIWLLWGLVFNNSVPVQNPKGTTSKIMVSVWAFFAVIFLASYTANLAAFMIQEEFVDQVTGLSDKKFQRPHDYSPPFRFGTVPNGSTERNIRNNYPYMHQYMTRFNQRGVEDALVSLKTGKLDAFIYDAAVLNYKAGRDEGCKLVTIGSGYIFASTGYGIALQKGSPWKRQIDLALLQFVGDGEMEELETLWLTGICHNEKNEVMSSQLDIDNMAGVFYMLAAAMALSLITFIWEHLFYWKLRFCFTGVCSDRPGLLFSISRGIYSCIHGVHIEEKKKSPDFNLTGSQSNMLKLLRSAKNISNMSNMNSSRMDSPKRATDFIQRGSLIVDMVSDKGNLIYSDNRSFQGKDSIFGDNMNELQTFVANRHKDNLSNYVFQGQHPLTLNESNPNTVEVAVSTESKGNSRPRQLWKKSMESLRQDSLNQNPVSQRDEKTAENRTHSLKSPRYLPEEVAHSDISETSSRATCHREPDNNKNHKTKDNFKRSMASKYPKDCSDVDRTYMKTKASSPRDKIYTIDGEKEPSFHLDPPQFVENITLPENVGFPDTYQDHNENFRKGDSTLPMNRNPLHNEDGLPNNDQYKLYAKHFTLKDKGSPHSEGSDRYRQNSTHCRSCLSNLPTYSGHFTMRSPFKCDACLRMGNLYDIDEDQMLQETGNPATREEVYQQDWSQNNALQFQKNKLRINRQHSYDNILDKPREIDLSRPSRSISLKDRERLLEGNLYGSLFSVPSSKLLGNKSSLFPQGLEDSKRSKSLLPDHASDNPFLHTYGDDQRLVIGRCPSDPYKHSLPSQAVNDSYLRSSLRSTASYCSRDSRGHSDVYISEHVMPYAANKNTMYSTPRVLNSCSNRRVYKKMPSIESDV
- test description: Allosteric modulation of rat GluN2A expressed in Xenopus laevis oocytes assessed as L-glutamate/glycine-induced current response at 100 uM at holding potential -60 mV by two-electrode voltage clamp method relative to L-glutamate/glycine
- Assay type: cell-based
Give the quantity in %, number only.

Data request: # lookup: Activity of `COc1cccc(/C=C/c2ccc3cc(O)c(C(=O)O)cc3c2)c1`
Data returned: 52.4

Data request: // Activity lookup, key: `CCCCCc1ccc2cc(C(=O)O)ccc2c1Br`
Data returned: 73

Data request: If you can, please state the reported Activity value of `CC(C)COC(=O)c1ccc2cc(C(=O)O)ccc2c1` .
Data returned: 159

Data request: Requested read-out: Activity. Entry: CC(CCCc1ccc2cc(C(=O)O)ccc2c1)CC(=O)O (racemic)
Data returned: 60

Data request: Fill in: Activity of `CC(C)CCCc1ccc2cc(C(=O)O)ccc2c1` is ___
Data returned: 171

Data request: For the compound shown here, CC(CCCc1ccc2cc(C(=O)O)ccc2c1)C(=O)O (racemic) , give the reported Activity.
Data returned: 110

Data request: // lookup Activity for `O=C(O)c1cc2cc(/C=C/c3ccccc3)ccc2cc1O`
Data returned: 32.7

Data request: GET /values?readout=Activity&item= `CC(C)CCCc1ccc2cc(O)c(C(=O)O)cc2c1`
Data returned: 78

Further cases:
Data request: Query (compound): `C=C(CCC(C)C)c1ccc2cc(C(=O)O)ccc2c1` ; field requested: Activity
Data returned: 163

Data request: Item under review: `O=C(O)c1cc2cc(CCc3ccccc3C(=O)O)ccc2cc1O` . Reported Activity?
Data returned: 91.8

Data request: Report Activity for `O=C(O)c1cc2ccc(/C=C/c3ccccc3)cc2cc1C(=O)O` please.
Data returned: 55

Data request: Fill in: Activity of `O=C(O)c1ccc2cc(CCCCc3ccccc3)ccc2c1` is ___
Data returned: 118

====

- test target: Glutamate NMDA receptor; Grin1/Grin2b (Rattus norvegicus, UniProt P35439+Q00960)
- Sequence (Q00960 whole entry, other chains not shown): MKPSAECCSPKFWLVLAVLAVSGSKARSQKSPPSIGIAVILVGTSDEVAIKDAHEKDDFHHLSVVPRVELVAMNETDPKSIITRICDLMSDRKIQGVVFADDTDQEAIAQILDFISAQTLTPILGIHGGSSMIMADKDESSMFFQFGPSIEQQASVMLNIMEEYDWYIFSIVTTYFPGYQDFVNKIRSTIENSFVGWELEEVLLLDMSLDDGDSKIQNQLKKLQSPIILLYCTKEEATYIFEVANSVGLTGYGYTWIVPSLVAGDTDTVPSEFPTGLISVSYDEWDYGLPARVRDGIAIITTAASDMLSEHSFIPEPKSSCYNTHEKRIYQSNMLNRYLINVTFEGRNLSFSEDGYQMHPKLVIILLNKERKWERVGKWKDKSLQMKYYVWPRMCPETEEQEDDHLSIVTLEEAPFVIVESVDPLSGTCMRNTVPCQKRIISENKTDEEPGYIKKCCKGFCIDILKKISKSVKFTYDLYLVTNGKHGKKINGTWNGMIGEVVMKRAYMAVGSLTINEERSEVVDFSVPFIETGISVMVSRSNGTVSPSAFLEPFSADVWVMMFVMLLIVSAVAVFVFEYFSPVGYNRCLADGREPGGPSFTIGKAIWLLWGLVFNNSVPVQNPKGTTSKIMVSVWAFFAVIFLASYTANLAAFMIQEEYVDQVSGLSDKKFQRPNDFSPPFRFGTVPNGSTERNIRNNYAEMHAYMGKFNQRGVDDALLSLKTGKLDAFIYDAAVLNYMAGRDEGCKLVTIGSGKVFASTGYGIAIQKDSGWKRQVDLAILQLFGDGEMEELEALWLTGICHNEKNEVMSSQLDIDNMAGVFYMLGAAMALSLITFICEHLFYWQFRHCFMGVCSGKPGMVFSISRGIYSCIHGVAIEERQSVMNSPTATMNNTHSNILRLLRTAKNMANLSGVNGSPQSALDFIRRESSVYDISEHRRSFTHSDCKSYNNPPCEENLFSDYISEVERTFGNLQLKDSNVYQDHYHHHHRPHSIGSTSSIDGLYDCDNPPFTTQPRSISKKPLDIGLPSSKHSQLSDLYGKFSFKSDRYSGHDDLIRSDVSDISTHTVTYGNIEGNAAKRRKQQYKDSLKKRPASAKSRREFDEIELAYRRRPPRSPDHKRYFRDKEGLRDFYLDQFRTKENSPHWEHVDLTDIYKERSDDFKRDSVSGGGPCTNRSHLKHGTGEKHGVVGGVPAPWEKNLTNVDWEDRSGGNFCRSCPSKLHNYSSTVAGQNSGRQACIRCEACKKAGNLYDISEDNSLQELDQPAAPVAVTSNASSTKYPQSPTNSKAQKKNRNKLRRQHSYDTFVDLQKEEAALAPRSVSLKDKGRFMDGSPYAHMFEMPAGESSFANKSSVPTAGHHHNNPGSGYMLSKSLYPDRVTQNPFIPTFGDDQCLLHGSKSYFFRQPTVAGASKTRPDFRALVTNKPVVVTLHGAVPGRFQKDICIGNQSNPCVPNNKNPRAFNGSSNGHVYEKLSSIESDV
- test description: Positive allosteric modulation of rat GluN1/GluN2B expressed in Xenopus laevis oocytes assessed as potentiation of L-glutamate/glycine-induced current response at holding potential -60 mV by two-electrode voltage clamp method
Each item that follows carries a reported EC50.
Numeric answer only, unit µM assumed.

In the examples that follow, each entry is paired with its recorded EC50.
Data request: Returns the measured EC50 for the input compound. Input: `CC(C)CCCc1ccc2cc(C(=O)O)ccc2c1`
Data returned: 34.6

Data request: Reported EC50, compound `O=C(O)c1ccc2cc(CCCC3CCCC3)ccc2c1` : ____
Data returned: 27

Data request: So what's the measured EC50 for this one? `C=C(CCC(C)C)c1ccc2cc(C(=O)O)ccc2c1`
Data returned: 116

Continuing:
Data request: Name the reported EC50 value associated with the compound CC(C)CCC(C)c1ccc2cc(C(=O)O)ccc2c1 (racemic)
Data returned: 25

====

- test target: Glutamate NMDA receptor; Grin1/Grin2b (Rattus norvegicus, UniProt P35439+Q00960)
- test description: Negative allosteric modulation of rat GluN1/GluN2B expressed in Xenopus laevis oocytes assessed as inhibition of L-glutamate/glycine-induced current response at holding potential -60 mV by two-electrode voltage clamp method
readout: pIC50
Would you please state pIC50, meaning minus log10 of the concentration in mol/L, as a bare number?

Worked cases, pIC50 given:
Data request: Requested field: pIC50. Item: `O=C(O)c1cc2cc(/C=C/c3cccc([N+](=O)[O-])c3)ccc2cc1O`
Data returned: 5.04

Data request: // returns reported pIC50 for input `O=C(O)c1cc2cc(/C=C/c3ccc([N+](=O)[O-])cc3)ccc2cc1O`
Data returned: 4.95

Data request: For `O=C(O)c1cc2cc(/C=C/c3ccccc3[N+](=O)[O-])ccc2cc1O` , what is its reported pIC50?
Data returned: 4.49

Data request: Bench note: what pIC50 did `O=C(O)c1cc2cc(-c3ccccc3)ccc2cc1O` show?
Data returned: 4.01

Please examine the following record next.
Data request: Recorded pIC50 of `O=C(O)c1cc2cc(/C=C/c3ccccc3)ccc2cc1O` , please.
Data returned: 5.12

====

- test target: Glutamate NMDA receptor; Grin1/Grin2c (Rattus norvegicus, UniProt P35439+Q00961)
- test description: Positive allosteric modulation of rat GluN1/GluN2C expressed in Xenopus laevis oocytes assessed as potentiation of L-glutamate/glycine-induced current response at holding potential -60 mV by two-electrode voltage clamp method
Some molecules, each annotated with its measured EC50.

Data request: Item under review: `CCCCCc1ccc2cc(C(=O)O)ccc2c1` . Reported EC50?
Data returned: 113 µM

Data request: Consider the molecule shown here: `C=C(CCC(C)C)c1ccc2cc(C(=O)O)ccc2c1` What is its recorded EC50?
Data returned: 26.1 µM

Data request: I would be grateful if you could share the reported EC50 for `CC(C)CCCc1ccc2cc(C(=O)O)ccc2c1` .
Data returned: 37.2 µM

Data request: Fill in the blank: the reported EC50 of CC(C)CCC(C)c1ccc2cc(C(=O)O)ccc2c1 (racemic) is ____.
Data returned: 36.2 µM

Okay, now this molecule:
Data request: Need EC50, item `O=C(O)c1ccc2cc(CCCC3CCCC3)ccc2c1`
Data returned: 22.4 µM

====

- test target: Glutamate receptor ionotropic, NMDA 2A (Rattus norvegicus) (UniProt Q00959)
- test description: Positive allosteric modulation of rat GluN2A expressed in Xenopus laevis oocytes assessed as potentiation of L-glutamate/glycine-induced current response at holding potential -60 mV by two-electrode voltage clamp method relative to L-glutamate/glycine
- Assay type: cell-based
- Design: concentration or dose not given beside the values
readout: Activity (%)
# output: bare number, implied unit %

Data request: Activity for `CCCCCc1ccc2cc(C(=O)O)ccc2c1` ?
Data returned: 39

Data request: Item under review: CC(C)CCC(C)c1ccc2cc(C(=O)O)ccc2c1 (racemic) . Reported Activity?
Data returned: 277

Data request: Would you kindly share the measured Activity for `CC(C)CCCc1ccc2cc(C(=O)O)ccc2c1` ?
Data returned: 68.6

Data request: Endpoint output: Activity of `O=C(O)c1ccc2cc(CCCC3CCCC3)ccc2c1` . Value?
Data returned: 38.4

# input for lookup
Data request: Can you look up the measured Activity of `C=C(CCC(C)C)c1ccc2cc(C(=O)O)ccc2c1` for me?
Data returned: 230
